The measured values listed here are drawn from the Human Domainome abundance scans (Beltran et al. 2025).

B1: Transitional endoplasmic reticulum ATPase, residues 26 to 106; numbered along this chain, P55072 (parent)
chain: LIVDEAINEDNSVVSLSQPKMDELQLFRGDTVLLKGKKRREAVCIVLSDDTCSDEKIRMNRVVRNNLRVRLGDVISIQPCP

# Variants of: B1
# assay.method.text: abundance fitness (aPCA) (normalised: wild type 0, dead -1); higher = more abundant; growth selection in yeast, the domain comes from the species named
# particulars: Homo sapiens
observed.property: abundance fitness

1. L26A : -0.36
2. L47G : 0.024
3. C80W : -0.29
4. A42K : 0.041
5. A42Q : -0.003
6. M21Y : -0.516
7. G36A : -0.041
8. K38L : 0.019
9. E5Q : -0.124
10. R40S : -0.061
11. R68M : 0.01
